Recorded IC50 values for a group of molecules are listed next.
targetSystem: UniProtKB P48740
Sequence (P48740 other isoform, or with tags, fused parts or gaps): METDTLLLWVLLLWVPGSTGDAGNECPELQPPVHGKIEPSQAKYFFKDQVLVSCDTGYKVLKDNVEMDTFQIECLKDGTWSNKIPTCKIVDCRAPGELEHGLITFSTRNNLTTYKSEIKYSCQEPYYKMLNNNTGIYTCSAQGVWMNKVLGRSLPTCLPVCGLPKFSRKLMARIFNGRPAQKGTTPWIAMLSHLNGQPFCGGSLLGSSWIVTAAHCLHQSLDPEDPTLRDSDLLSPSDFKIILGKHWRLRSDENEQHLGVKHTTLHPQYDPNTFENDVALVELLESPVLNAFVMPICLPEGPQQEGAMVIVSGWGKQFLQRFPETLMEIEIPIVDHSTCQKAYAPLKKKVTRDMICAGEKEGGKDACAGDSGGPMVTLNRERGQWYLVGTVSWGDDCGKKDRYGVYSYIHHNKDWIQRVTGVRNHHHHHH
protocolDescription: Biochemical human MASP1 assay (FRET substrate)
appliedConditions: Average IC50; recombinant human MASP1; read-out: human MASP1 IC50
Where a SMILES comes first, the peptide text is derived from it. Bridges are numbered along the chain shown (N, C = ends). [ ]: non-standard residue; d: D form. tBuAla = CC(C)(C)C[C@H](N)C(=O)O; NMeC = CN[C@@H](CS)C(=O)O; Dap = NC[C@H](N)C(=O)O
Provide only the numeric value, understood in nM.

molecule | targetSystem | IC50, nM
CC[C@H](C)[C@@H]1NC(=O)CNC(=O)[C@H](CN)NC(=O)[C@H](CN)NC(=O)[C@H](CC(=O)O)NC(=O)[C@@H]2CCCN2C(=O)[C@H]([C@@H](C)CC)NC(=O)[C@@H]2CSSC[C@H](NC1=O)C(=O)N[C@@H](CO)C(=O)N[C@@H](CCCNC(=N)N)C(=O)N[C@@H](CO)C(=O)N[C@@H](CC(C)C)C(=O)N1CCC[C@H]1C(=O)N1CCC[C@H]1C(=O)N[C@@H]([C@@H](C)CC)C(=O)N2 [Example 23] (cyclo(CIPD[Dap][Dap]GICSRSLPPI); disulfide 1-9) | UniProtKB P48740 | 180
CC[C@H](C)[C@@H]1NC(=O)[C@H](CN)NC(=O)[C@H](CN)NC(=O)[C@@H]2CCCN2C(=O)[C@H]([C@@H](C)CC)NC(=O)[C@H]2NC(=O)[C@H]([C@@H](C)CC)NC(=O)[C@@H]3CCCN3C(=O)[C@@H]3CCCN3C(=O)[C@H](CC(C)(C)C)NC(=O)[C@H](CO)NC(=O)[C@H](CCCNC(=N)N)NC(=O)[C@H](CO)NC(=O)[C@H](CSSC2(C)C)NC1=O [Example 97] | UniProtKB P48740 | 5

Q. Any idea what IC50 was measured for CC[C@H](C)[C@@H]1NC(=O)CNC(=O)CNC(=O)[C@H](C)NC(=O)[C@@H](CC(=O)O)NC(=O)[C@@H]2CCCN2C(=O)[C@H]([C@@H](C)CC)NC(=O)[C@@H]2CSSC[C@H](NC1=O)C(=O)N[C@@H](CO)C(=O)N[C@@H](CCCNC(=N)N)C(=O)N[C@@H](CO)C(=O)N[C@@H](CC(C)(C)C)C(=O)N1CCC[C@H]1C(=O)N1CCC[C@H]1C(=O)N[C@@H]([C@@H](C)CC)C(=O)N2C [Example 47] (cyclo(AGGICSRS[tBuAla]PPI[NMeC]IP[dD]); disulfide 5-13) ?
A. 8.2

* * *

targetSystem: human MASP2 (Homo sapiens (Human), UniProt O00187)
Sequence (O00187 other isoform, or with tags, fused parts or gaps): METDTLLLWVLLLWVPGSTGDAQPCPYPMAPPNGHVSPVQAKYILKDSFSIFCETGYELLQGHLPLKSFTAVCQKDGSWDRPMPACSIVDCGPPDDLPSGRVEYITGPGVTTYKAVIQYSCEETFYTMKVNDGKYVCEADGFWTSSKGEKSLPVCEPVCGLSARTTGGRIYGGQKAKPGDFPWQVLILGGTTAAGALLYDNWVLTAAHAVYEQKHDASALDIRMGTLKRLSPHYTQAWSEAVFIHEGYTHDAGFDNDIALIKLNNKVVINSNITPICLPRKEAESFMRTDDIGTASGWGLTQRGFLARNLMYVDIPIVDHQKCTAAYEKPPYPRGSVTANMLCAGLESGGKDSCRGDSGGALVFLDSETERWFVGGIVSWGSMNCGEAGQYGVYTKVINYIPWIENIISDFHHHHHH
protocolDescription: Biochemical human MASP2 assay (FRET substrate)
appliedConditions: Average IC50; recombinant human MASP2; read-out: human MASP2 IC50
Where a SMILES comes first, the peptide text is derived from it. Bridges are numbered along the chain shown (N, C = ends). [ ]: non-standard residue; d: D form. tBuAla = CC(C)(C)C[C@H](N)C(=O)O; Pen = CC(C)(S)[C@H](N)C(=O)O; Ahx = NCCCCCC(=O)O
measurementKind: pIC50
FYI, pIC50 means -log10 of a concentration in mol per litre.

compound | targetSystem | measurementKind | result
CC[C@H](C)[C@@H]1NC(=O)[C@H](C)NC(=O)CCCCCNC(=O)[C@H](CC(=O)O)NC(=O)[C@@H]2CCCN2C(=O)[C@H]([C@@H](C)CC)NC(=O)[C@H]2NC(=O)[C@H]([C@@H](C)CC)NC(=O)[C@@H]3CCCN3C(=O)[C@@H]3CCCN3C(=O)[C@H](CC(C)(C)C)NC(=O)[C@H](CO)NC(=O)[C@H](CCCNC(=N)N)NC(=O)[C@H](CO)NC(=O)[C@H](CSSC2(C)C)NC1=O [Example 27] (cyclo(AICSRS[tBuAla]PPI[Pen]IPD[Ahx]); disulfide 3-11) | human MASP2 (Homo sapiens (Human), UniProt O00187) | pIC50 | 7.43

Now look at this one.
Q. Find the measured pIC50: item CC[C@H](C)[C@@H]1NC(=O)CNC(=O)CNC(=O)[C@H](C)NC(=O)[C@H](CC(=O)O)NC(=O)[C@@H]2CCCN2C(=O)[C@H]([C@@H](C)CC)NC(=O)[C@@H]2CSSC[C@H](NC1=O)C(=O)N[C@@H](CO)C(=O)N[C@@H](CCCNC(=N)N)C(=O)N[C@@H](CO)C(=O)N[C@@H](CC(C)C)C(=O)N1CCC[C@H]1C(=O)N1CCC[C@H]1C(=O)N[C@@H]([C@@H](C)CC)C(=O)N2 [Example 18] (cyclo(AGGICSRSLPPICIPD); disulfide 5-13) , target or system human MASP2 (Homo sapiens (Human), UniProt O00187).
A. 7.82

Ref: patent US20240010684A1
